- Test system: VchCAST RNA-guided transposition machinery (E. coli BL21(DE3) host, lacZ target)
- test: relative integration efficiency (T-LR orientation) vs wild-type transposon end (log2 (normalized fold change)); transposon end mutated: right end (5 bp flank + 75 bp right end); higher = more efficient transposition
test_readout: relative integration efficiency (log2)

Example entries and their recorded answers appear below.
ACATTTGTTGATACAACCATAAAATGATAATTAATAATTATTTATAATCACACCCATAAATTGATAATTATCACACCCATAAATTGATATTGCCTCTGATCATAGTCAGACCAACATTGCTACGACC : -0.35
ACATTTGTTGATACAACCATAAAATGATAATTAATAATTATTTATAATCAGCAACTTAACCACAAACACCCATAAATTGATAATTATCAACAAACGCCCGGTCGCGGTACTCTGATCATAGTCAGAC : -0.33
ACATTTGTTGATACAACCATAAAATGATAATTACACCCATAAATTGATAATTATCACACCCATAAATTGATATTGCCTCTGATCATGGTGTCTCGCTTCAGCAGTCAGACCAACATTGCACCGACAC : -0.507
ACATTTGTTGATACAACCATAAAATCATCATTACACCCATCAATTGATAATTATCACACCCAATTTAACTATAACGCTCTGATCATAGTCAGACCAACATTGCTACGACCCGTATTCGCACCGACAC : -0.508
ACATTTGTTGATACAACCATAAAATGATAATTACTGCCATAAATTGATAATTATCACACCCATAAATTGATATTGCCTCTGATCATAGTCAGACCAACATTGCTACGACCCGTATTCGCACCGACAC : -0.602

Query: Please supply the value of reported relative integration efficiency (log2) for the item `ACATTTGTTGATACAACCATAAAATCATAATTACACCCATCAATTGATAATTATCACACCCCATTTAACTATAACGCTCTGATCATAGTCAGACCAACATTGCTACGACCCGTATTCGCACCGACAC`
Response: -0.773

Query: Note relative integration efficiency (log2) for the sequence shown: `ACATTTGTTGATACAACCATAAAATGATAATTACACCCATAAATTGATAATTATCACACCCATAAATTGATATTGCCTCTTCTTTGCTCACGCATCTAGTCGGTCCACGTTTGGTTCGCACCGACAC`
Response: -0.129

Query: Identify measured relative integration efficiency (log2) associated with `ACATTTGTTGATACAACCATAAAATGATAATTACACCCATAAATTGATAATTATCACACCCATAAATTGATAGGTAAGAGGATCATAGTCAGACCAACATTGCTACGACCCGTATTCGCACCGACAC`
Response: 0.884

----------
- Tested on: VchCAST RNA-guided transposition machinery (E. coli BL21(DE3) host, lacZ target)
- test: relative integration efficiency (T-RL orientation) vs wild-type transposon end (log2 (normalized fold change)); transposon end mutated: right end (5 bp flank + 75 bp right end); higher = more efficient transposition
test_readout: relative integration efficiency (log2)
The response must contain the number and no unit.

ACATTTGTTGATACAACCATAAAAGTCGAATTACACCCATAAATTGATAATTATCACACCCATAAATTGATATTGCCTCTGATCATAGTCAGACCAACATTGCTACGACCCGTATTCGCACCGACAC : -2.69
ACATTTGTAAATAAAACCATACGTTGATTTTACGAAACCATACGCTGAAATAATCACACCCATAAATTGATATTGCCTCTGATCATAGTCAGACCAACATTGCTACGACCCGTATTCGCACCGACAC : -6.59

# ---- query sequence ----
Query: Supply reported relative integration efficiency (log2) belonging to this sequence: `ACATTTGTTGATACAACCATAAAATGATAATTACACCCATAAATTGATAATTAGACAACCCATAAATTGATATTGCCTCTGATCATAGTCAGACCAACATTGCTACGACCCGTATTCGCACCGACAC`
Response: -0.476
